Hi there, I'd appreciate the recorded Ki for every entry that follows.
target: BACE1 (Homo sapiens (Human), UniProt P56817); experiment: Measurement of BACE1 inhibition by fluorescence resonance energy transfer (FRET), MCA substrate; conditions: read-out: Test Example 1 BACE1 MCA Ki; FRET, MCA substrate
Sequence (P56817 75-416): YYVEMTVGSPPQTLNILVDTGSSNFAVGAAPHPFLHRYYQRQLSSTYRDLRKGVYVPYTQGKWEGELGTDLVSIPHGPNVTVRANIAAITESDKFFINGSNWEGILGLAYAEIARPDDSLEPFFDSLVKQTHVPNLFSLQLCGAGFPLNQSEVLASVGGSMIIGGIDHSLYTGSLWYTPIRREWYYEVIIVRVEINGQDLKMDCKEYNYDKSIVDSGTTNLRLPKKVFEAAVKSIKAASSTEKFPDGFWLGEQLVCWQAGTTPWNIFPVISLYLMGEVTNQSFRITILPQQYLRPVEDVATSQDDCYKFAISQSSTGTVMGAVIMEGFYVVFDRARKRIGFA
One number for each entry, in nM.

Examples with their reported Ki follow.
> print(dat)
                                   compound                          target.or.system  parameter.measured  assay.result
1  N#Cc1cnc(C(=O)Nc2ccc3c(c2)C2(COC(N)=N2)C2(CC2)CO3)c(Cl)c1 (centres unmarked)  BACE1 (Homo sapiens (Human), UniProt P56817)                  Ki           280
2  CC1(C)Oc2ccc(NC(=O)c3ccc(Cl)cn3)cc2[C@@]2(COC(N)=N2)C12CC2  BACE1 (Homo sapiens (Human), UniProt P56817)                  Ki          37.8
3  CC1(C)Oc2ccc(-c3cncnc3)cc2C2(COC(N)=N2)C12COC2 (single isomer, unassigned) [RP 51b]  BACE1 (Homo sapiens (Human), UniProt P56817)                  Ki           137
4  CC1(C)Oc2ccc(NC(=O)c3ccc(F)cn3)cc2[C@@]2(COC(N)=N2)C12CC2  BACE1 (Homo sapiens (Human), UniProt P56817)                  Ki          91.5

// batch mode: one Ki value per listed entry
1. CC#Cc1cncc(-c2ccc3c(c2)C2(COC(N)=N2)C2(COC2)C(CC)O3)c1 (centres unmarked)
2. NC1=NC2(CO1)c1cc(NC(=O)c3ccc(F)cn3)ccc1OCC21CC1 (centres unmarked)

Output line:
1: 107; 2: 1030
